# tested.target: Rpn11 (Homo sapiens (Human), UniProt O00487)
# Sequence (O00487 whole entry, looked up): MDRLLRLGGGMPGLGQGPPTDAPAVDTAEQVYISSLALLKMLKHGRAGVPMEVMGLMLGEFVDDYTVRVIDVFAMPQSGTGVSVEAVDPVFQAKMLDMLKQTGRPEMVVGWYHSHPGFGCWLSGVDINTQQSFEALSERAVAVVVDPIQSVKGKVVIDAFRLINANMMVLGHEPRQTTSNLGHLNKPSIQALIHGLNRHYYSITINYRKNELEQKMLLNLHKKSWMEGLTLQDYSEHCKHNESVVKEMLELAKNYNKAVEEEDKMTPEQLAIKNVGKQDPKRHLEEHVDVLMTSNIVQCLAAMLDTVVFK
# assay.name: Rpn11 activity assay (fluorescence polarization, Ub4-pepOG cleavage by 26S proteasome)
# Type: biochemical
# run.conditions: Table 1, metal binding pharmacophore fragments
assay.readout: IC50

{"molecule": "Nc1cccc2cccnc12 [reference compound]", "tested.target": "Rpn11 (Homo sapiens (Human), UniProt O00487)", "reported.measurement": "> 100 µM"}
{"molecule": "Sc1cccc2ccccc12 [reference compound]", "tested.target": "Rpn11 (Homo sapiens (Human), UniProt O00487)", "reported.measurement": "> 100 µM"}
{"molecule": "Sc1ccnc2cccnc12 [Compound 8e, 1,5-Naphthyridine-4-thiol]", "tested.target": "Rpn11 (Homo sapiens (Human), UniProt O00487)", "reported.measurement": "15 µM"}
{"molecule": "Cc1cccc2cccnc12 [reference compound]", "tested.target": "Rpn11 (Homo sapiens (Human), UniProt O00487)", "reported.measurement": "> 100 µM"}
{"molecule": "Sc1cccc2ncccc12 [reference compound]", "tested.target": "Rpn11 (Homo sapiens (Human), UniProt O00487)", "reported.measurement": "> 100 µM"}

Could you tell me IC50 for each of these molecules? They are listed below.
1. Sc1cccc2cccnc12 [Compound 8TQ, 8-thioquinoline, reference compound]
2. CSc1cccc2cccnc12 [reference compound]
3. Oc1cccc2cccnc12 [reference compound]

Result:
2.8 µM
> 100 µM
> 100 µM
